- target_or_system: T1, human high affinity trimeric IL-2 receptor (CD25/CD122/CD132) (human, UniProt P01589 22-272; P14784 27-551; P31785 23-369)
- T1 sequence 1: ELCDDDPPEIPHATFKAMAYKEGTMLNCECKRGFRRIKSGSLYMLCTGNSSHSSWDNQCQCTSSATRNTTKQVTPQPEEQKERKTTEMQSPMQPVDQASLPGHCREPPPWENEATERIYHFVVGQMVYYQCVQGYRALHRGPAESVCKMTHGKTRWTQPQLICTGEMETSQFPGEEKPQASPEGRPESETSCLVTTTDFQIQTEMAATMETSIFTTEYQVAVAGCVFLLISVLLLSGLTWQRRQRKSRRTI
- T1 sequence 2: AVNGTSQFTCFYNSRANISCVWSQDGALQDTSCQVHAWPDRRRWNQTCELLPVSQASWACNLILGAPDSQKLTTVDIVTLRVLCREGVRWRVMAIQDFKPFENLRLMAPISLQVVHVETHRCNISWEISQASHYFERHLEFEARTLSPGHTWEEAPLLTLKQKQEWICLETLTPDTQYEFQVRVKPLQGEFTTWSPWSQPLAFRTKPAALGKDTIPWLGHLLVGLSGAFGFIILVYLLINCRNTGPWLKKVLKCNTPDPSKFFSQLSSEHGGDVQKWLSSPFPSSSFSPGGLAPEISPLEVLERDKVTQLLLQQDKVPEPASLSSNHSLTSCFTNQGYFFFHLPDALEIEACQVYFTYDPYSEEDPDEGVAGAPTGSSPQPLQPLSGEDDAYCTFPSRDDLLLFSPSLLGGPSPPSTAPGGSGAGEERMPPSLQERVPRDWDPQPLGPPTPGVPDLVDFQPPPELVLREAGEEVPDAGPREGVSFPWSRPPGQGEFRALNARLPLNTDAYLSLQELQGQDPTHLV
- T1 sequence 3: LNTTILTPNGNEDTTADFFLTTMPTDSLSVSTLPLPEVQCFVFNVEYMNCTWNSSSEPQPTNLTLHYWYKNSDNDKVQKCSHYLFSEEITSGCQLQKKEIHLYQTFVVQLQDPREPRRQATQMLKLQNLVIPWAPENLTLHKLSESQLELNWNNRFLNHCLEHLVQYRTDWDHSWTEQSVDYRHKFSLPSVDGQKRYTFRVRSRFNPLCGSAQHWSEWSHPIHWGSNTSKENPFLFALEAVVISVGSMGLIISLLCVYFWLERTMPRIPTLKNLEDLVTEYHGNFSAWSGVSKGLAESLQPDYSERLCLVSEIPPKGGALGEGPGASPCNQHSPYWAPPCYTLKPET
- test_details: cell-based or functional assay
Record form. Attribute: pSTAT5 ratio YT CD25/YT, dilution factor 2, upper table. Fill in for each entry.
Keep the answer to the number alone.

Entry under review: AEH (ligand) cytokine: APTSSSTKKTQLQLEHLALDLEMILNGINNYKNPKLTRMLTFKFYMPKKATELKHLQCLEEELKPLEEVLNLAQSKNFHLRPRDLISNINVIVLELKGSETTFMCEYADETATIVEFLNRWITFCHSIISTLT . Reported pSTAT5 ratio YT CD25/YT, dilution factor 2, upper table?
1.3

Entry under review: FEH (ligand) cytokine: APTSSSTKKTQLQLEHLFLDLEMILNGINNYKNPKLTRMLTFKFYMPKKATELKHLQCLEEELKPLEEVLNLAQSKNFHLRPRDLISNINVIVLELKGSETTFMCEYADETATIVEFLNRWITFCHSIISTLT . Reported pSTAT5 ratio YT CD25/YT, dilution factor 2, upper table?
0.9

Entry under review: KEH (ligand) cytokine: APTSSSTKKTQLQLEHLKLDLEMILNGINNYKNPKLTRMLTFKFYMPKKATELKHLQCLEEELKPLEEVLNLAQSKNFHLRPRDLISNINVIVLELKGSETTFMCEYADETATIVEFLNRWITFCHSIISTLT . Reported pSTAT5 ratio YT CD25/YT, dilution factor 2, upper table?
1.1

The values you see were collected from patent US20210275641A1.
